Test system: HCT116
Protocol text: efficacy (fitted maximal change in viability relative to DMSO control); higher = less cytotoxic (negative = loss of viability)
Condition info: 48 h
Kindly return MET if reported efficacy is no lower than -30%; return NOT MET if it is lower.

Evaluate CC(C)=CCC/C(C)=C/CC/C(C)=C/CSc1ccccc1C(=O)O [Salirasib] : efficacy at minimum -30%?
MET

Evaluate CC[C@@]1(O)C(=O)OC\C2=C1\C=C\3N(CC4=C3N=C5C=CC=CC5=C4)C2=O [Camptothecin] : efficacy at minimum -30%?
NOT MET

Evaluate CC[C@H](NC(=O)[C@H](C[S+](=O)([O-])CC1CC1)N[C@@H](c1ccc(F)cc1)C(F)(F)F)C(=O)C(=O)NC1CC1 [VBY-825] : efficacy at minimum -30%?
MET

====

Tested on: HCT116
Protocol text: efficacy (fitted maximal change in viability relative to DMSO control); higher = less cytotoxic (negative = loss of viability)
Condition info: 48 h
Value kind: efficacy
Respond with a number, then the unit of measure.

Guide cases for efficacy, answers given:
C[C@@H]1COCCN1c1cc(C2([S@+](C)(=N)[O-])CC2)nc(-c2ccnc3[nH]ccc23)n1 [AZD-6738] | -84.1%
COc1ccccc1C(=O)Nc1cc2c(cc1N1CCCC1)n(C)c(=O)n2C [PFI-4] | -64%
C=C1CCC2[C@](C)(CO)C(O)CC[C@]2(C)C1C/C=C1/C(=O)OCC1O (some centres not stated) [Andrographolide] | -65.7%
CC/1=C(\O)C(=O)\C=C2/C1=C\C=C3/[C@@]2(C)CC[C@@]4(C)[C@@H]5C[C@@](C)(CC[C@]5(C)CC[C@]34C)C(O)=O [Tripterin] | -98.9%
C[C@H]1O[C@H](C[C@H](O)[C@@H]1O)O[C@H]2[C@@H](O)C[C@@H](O[C@@H]2C)O[C@H]3[C@@H](O)C[C@@H](O[C@@H]3C)O[C@H]4CC[C@@]5(C)[C@H](CC[C@@H]6[C@@H]5C[C@@H](O)[C@]7(C)[C@H](CC[C@]67O)C/8=C/C(=O)OC8)C4 [Digoxin] | -80.9%

efficacy recorded for this molecule, C=CC(=O)Nc1cccc(C)c1Nc1ncc2cc(-c3c(Cl)c(OC)cc(OC)c3Cl)ccc2n1 [BLU-9931] , is -50.4%

efficacy recorded for this molecule, CCOC(=O)c1ccc(C#Cc2ccc3c(c2)C(C)(C)CCS3)nc1 [Tazarotene] , is -38.2%

efficacy recorded for this molecule, CC(C(C)N1CC(=O)NC(=O)C1)N1CC(=O)NC(=O)C1 (configuration not stated) [ICRF-193] , is -32.2%

efficacy recorded for this molecule, COC1=CC(=C2C(=O)N\C(=N/C2=C1)C3=CC(=C(OCCO)C(=C3)C)C)OC [RVX-208] , is -41.5%

efficacy recorded for this molecule, Cc1c(O)cccc1C(=O)NC(CSc1ccccc1)C(O)CN1CC2CCCCC2CC1C(=O)NC(C)(C)C (configuration not stated) [Nelfinavir] , is -101%

====

System: HCT116;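 also: Luminescence-based viability readout, five doses per compound, normalized against on-plate DMSO and empty-well controls, followed by dose-response curve fitting for every drug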
Protocol text: efficacy (fitted maximal change in viability relative to DMSO control); higher = less cytotoxic (negative = loss of viability)
Condition info: 48 h
In this section, each of the molecules is paired with its reported efficacy.
Quick note: give the figure in %, leave out the unit.

O=C(CCN1CCN(C(=O)OCc2cc(Cl)cc(Cl)c2)CC1)c1ccc2[nH]c(=O)oc2c1 | -11.3

efficacy recorded for this molecule, COC1=CC=C(C=C1)C2=NC3=CC(=CC=C3[NH]2)/C4=N/NC(=O)CC4C (stereo not drawn) , is -48.6

efficacy recorded for this molecule, "CC#CCn1c(N2CCC[C@@H](N)C2)nc2c1c(=O)n(Cc1nc(C)c3ccccc3n1)c(=O)n2C" , is -31.7

efficacy recorded for this molecule, "O=C1NC(=O)/C(=C\c2ccc(-c3ccc(F)cc3)o2)S1" , is -23.2

efficacy recorded for this molecule, "CCNC1(C(N)=O)CCN(c2ncnc3c2nc(-c2ccccc2Cl)n3-c2ccc(Cl)cc2)CC1" , is -97.3

efficacy recorded for this molecule, NC1CCCN(c2c(/C=C3\SC(=O)NC3=O)cccc2-c2ccccc2)C1 (stereo not drawn) , is -67.1

efficacy recorded for this molecule, COC(=O)Nc1nc2cc([S+]([O-])c3ccccc3)ccc2[nH]1 (stereo not drawn) , is -47.9

efficacy recorded for this molecule, "Fc1ccc(C(OCCN2CCN(CCCc3ccccc3)CC2)c2ccc(F)cc2)cc1" , is -96.8
